Target: Pun-AVR-14B/GLC-2 (Parascaris univalens, UniProt A0A894K7G1+A0A894KE58)
Construct: full-length subunits co-expressed 1:1 (cRNA) in Xenopus laevis oocytes; heteromeric, pentameric GluCl, stoichiometry unknown
Sequence (A0A894K7G1 19-428): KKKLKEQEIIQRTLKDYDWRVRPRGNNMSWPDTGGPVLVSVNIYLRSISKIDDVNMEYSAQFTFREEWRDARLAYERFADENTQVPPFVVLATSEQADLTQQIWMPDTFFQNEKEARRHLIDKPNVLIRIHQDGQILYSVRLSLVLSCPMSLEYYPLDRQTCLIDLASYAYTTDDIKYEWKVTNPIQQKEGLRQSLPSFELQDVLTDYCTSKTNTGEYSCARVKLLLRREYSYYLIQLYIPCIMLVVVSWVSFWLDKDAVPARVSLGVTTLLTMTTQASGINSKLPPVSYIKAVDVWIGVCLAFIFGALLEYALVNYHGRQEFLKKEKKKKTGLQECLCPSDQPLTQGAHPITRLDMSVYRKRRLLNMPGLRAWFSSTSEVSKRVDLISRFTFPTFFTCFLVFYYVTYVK
Sequence (A0A894KE58 21-448): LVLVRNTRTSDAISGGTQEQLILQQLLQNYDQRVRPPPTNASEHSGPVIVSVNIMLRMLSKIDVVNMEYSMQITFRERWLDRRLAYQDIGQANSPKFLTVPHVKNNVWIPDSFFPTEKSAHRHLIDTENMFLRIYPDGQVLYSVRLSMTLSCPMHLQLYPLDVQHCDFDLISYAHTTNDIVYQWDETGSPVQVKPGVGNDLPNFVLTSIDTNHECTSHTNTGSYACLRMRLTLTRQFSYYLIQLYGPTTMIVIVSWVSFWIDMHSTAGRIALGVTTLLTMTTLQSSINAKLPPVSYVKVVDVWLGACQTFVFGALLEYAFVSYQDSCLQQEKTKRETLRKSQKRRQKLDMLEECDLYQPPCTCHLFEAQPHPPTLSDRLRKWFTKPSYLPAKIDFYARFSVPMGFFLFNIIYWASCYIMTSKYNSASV
Test: two-electrode voltage clamp, Xenopus oocytes
measurement-label: EC50 (µM)
Respond with the bare value in µM.

Quick note, EC50 for N[C@@H](CCC(=O)O)C(=O)O [glutamate] landed at 13.6

* * *

Target: Cel-AVR-14B (Caenorhabditis elegans, UniProt Q17369)
Construct: full-length, expressed singly (cRNA) in Xenopus laevis oocytes; homomeric pentameric GluCl; b70 prints CAA04170 for AVR-14B, which b73 gives to AVR-15B
Assay: two-electrode voltage clamp, Xenopus oocytes
measurement-label: pEC50
pEC50 here is simply -log10 of the concentration when that concentration is written in mol/L.

Quick note, pEC50 for N[C@@H](CCC(=O)O)C(=O)O [glutamate] landed at 3.95

* * *

Target: Pun-GLC-3 (Parascaris univalens, UniProt A0A894K4V1)
Construct: full-length, expressed singly (cRNA) in Xenopus laevis oocytes; homomeric pentameric GluCl
Sequence (A0A894K4V1 25-485): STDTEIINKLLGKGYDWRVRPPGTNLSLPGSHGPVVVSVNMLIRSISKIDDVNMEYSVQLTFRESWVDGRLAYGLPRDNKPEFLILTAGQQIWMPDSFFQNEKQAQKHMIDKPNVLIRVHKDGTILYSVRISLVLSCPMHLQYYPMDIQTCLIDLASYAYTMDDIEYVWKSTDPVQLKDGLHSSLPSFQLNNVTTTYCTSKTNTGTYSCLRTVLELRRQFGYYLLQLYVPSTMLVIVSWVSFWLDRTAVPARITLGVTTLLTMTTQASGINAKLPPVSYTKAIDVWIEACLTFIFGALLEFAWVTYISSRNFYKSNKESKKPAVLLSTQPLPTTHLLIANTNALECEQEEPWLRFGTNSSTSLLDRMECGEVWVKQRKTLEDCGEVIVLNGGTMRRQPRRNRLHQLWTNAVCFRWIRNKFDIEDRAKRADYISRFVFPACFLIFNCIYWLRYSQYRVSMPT
Assay: two-electrode voltage clamp, Xenopus oocytes
measurement-label: pEC50
pEC50 here is simply -log10 of the concentration when that concentration is written in mol/L.

Quick note, pEC50 for N[C@@H](CCC(=O)O)C(=O)O [glutamate] landed at 2.83

* * *

Target: Cel-GLC-2/GLC-3 (Caenorhabditis elegans, UniProt G5EEZ3+Q17328)
Construct: full-length subunits co-expressed 1:1 (cRNA) in Xenopus laevis oocytes; heteromeric, pentameric GluCl, stoichiometry unknown
Sequence (G5EEZ3 23-484, one chain of several): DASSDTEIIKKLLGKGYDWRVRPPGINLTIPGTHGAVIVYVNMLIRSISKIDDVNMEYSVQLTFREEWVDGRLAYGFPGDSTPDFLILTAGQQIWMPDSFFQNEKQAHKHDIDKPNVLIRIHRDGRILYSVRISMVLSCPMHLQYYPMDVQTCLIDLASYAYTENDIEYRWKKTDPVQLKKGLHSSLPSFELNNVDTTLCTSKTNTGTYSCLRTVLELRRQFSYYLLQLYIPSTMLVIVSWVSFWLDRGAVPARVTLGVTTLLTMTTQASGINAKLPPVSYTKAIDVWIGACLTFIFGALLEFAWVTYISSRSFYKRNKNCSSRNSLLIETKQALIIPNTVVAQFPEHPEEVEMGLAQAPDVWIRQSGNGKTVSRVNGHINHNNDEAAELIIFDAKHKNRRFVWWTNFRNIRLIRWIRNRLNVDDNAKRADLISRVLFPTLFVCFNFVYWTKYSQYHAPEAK
Experiment: two-electrode voltage clamp, Xenopus oocytes
measurement-label: pEC50
pEC50 here is simply -log10 of the concentration when that concentration is written in mol/L.

Quick note, pEC50 for N[C@@H](CCC(=O)O)C(=O)O [glutamate] landed at 4.33

* * *

Biological target: Cel-AVR-14B/GLC-2 (Caenorhabditis elegans, UniProt Q17328+Q17369)
Construct: full-length subunits co-expressed 1:1 (cRNA) in Xenopus laevis oocytes; heteromeric, pentameric GluCl, stoichiometry unknown; b70 prints CAA04170 for AVR-14B, which b73 gives to AVR-15B
Sequence (Q17369 22-430): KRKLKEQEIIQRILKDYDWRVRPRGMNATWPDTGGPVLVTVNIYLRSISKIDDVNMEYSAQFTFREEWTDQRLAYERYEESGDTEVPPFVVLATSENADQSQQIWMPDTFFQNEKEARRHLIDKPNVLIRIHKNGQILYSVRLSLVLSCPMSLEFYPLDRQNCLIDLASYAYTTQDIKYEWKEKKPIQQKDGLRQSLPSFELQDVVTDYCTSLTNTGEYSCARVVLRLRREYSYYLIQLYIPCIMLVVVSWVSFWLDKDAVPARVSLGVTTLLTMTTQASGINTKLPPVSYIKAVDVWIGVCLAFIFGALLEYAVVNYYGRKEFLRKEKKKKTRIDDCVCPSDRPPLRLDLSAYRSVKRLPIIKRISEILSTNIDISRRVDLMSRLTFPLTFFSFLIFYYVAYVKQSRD
Sequence (Q17328 23-434): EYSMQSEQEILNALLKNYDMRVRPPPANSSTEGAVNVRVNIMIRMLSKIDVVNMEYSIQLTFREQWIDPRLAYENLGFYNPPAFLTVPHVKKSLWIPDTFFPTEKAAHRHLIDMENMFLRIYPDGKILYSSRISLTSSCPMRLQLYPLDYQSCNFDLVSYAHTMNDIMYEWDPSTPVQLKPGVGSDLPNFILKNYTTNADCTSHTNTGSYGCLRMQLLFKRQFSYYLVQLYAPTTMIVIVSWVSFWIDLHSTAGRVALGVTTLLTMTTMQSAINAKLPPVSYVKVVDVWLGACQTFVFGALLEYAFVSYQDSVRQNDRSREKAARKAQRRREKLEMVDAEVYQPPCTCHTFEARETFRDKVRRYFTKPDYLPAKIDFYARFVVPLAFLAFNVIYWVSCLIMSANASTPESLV
Assay: two-electrode voltage clamp, Xenopus oocytes
measurement-label: EC50 (µM)
Respond with the bare value in µM.

Quick note, EC50 for N[C@@H](CCC(=O)O)C(=O)O [glutamate] landed at 20.5
